I'd appreciate it if you could supply mass density values for the items below.
# METHOD: xn = mol fraction of the nth substance listed
# CONDITION: 338.15 K; 100 kPa; Liquid; Vibrating tube method; x2 = 0.25
The reply should be a number in kg/m3, with the unit left off.

Q: Need mass density of CCCCn1cc[n+](C)c1.COP(=O)([O-])OC [1-butyl-3-methyl-1H-imidazolium dimethylphosphate] + CCCC[n+]1ccn(C)c1.O=S(=O)([N-]S(=O)(=O)C(F)(F)F)C(F)(F)F , thanks.
Result: 1209.7

Q: Same thing, different compound: CCCCn1cc[n+](C)c1.N#C[S-] [1-butyl-3-methylimidazolium thiocyanate] + CCCC[n+]1ccn(C)c1.O=S(=O)([N-]S(=O)(=O)C(F)(F)F)C(F)(F)F
Result: 1167.4

Q: Same thing, different compound: CCCCn1cc[n+](C)c1.F[P-](F)(F)(F)(F)F [1-butyl-3-methylimidazolium hexafluorophosphate] + CCCC[n+]1ccn(C)c1.O=S(=O)([N-]S(=O)(=O)C(F)(F)F)C(F)(F)F
Result: 1355.2

Q: Same thing, different compound: CCCCn1cc[n+](C)c1.O=S(=O)([O-])C(F)(F)F [1-butyl-3-methylimidazolium trifluoromethanesulfonate] + CCCC[n+]1ccn(C)c1.O=S(=O)([N-]S(=O)(=O)C(F)(F)F)C(F)(F)F
Result: 1306.2

Q: Same thing, different compound: CC(=O)[O-].CCCCn1cc[n+](C)c1 [1-butyl-3-methylimidazolium acetate] + CCCC[n+]1ccn(C)c1.O=S(=O)([N-]S(=O)(=O)C(F)(F)F)C(F)(F)F
Result: 1153.2
